Field: IC50. Provide a value for each of the molecules that follow.
test system: SUDHL10; test: Induction of cytotoxicity (Assay 6), SUDHL10; conditions: read-out: Cytotox SUDHL10 [M] (median) IC50, CellTiter-Glo, 5 hours, SUDHL10
Response body: numeric value in M, unit text excluded.

Item under review: Cc1c2c(nn1C)C(CCN1CCOCC1)N(C)S(=O)(=O)CCCn1c(C(=O)O)c(CCCOc3cccc4cc(F)ccc34)c3ccc(Cl)c-2c31 (racemic) [Example 48] . Reported IC50?
1.2e-08

Try this molecule too: Cc1c2c(nn1C)CN(C)S(=O)(=O)CCCn1c(C(=O)O)c(CCCOc3cccc4ccccc34)c3cccc-2c31 (single isomer, unassigned; enantiomer 1) [Example 11]
3.7e-06

Try this molecule too: Cc1c2c(nn1C)C(CCN1CCOCC1)N(C)S(=O)(=O)CCCn1c(C(=O)O)c(CCCOc3cccc4cc(F)ccc34)c3ccc(Cl)c-2c31 (single isomer, unassigned; enantiomer 2) [Example 67]
1.8e-08

Try this molecule too: Cc1c2c(nn1C)CNS(=O)(=O)CCCn1c(C(=O)O)c(CCCOc3cccc4cc(F)ccc34)c3ccc(Cl)c-2c31 (single isomer, unassigned; enantiomer 1) [Example 51]
9.8e-07

Try this molecule too: CCc1c2c(nn1C)C(CCC1CCOCC1)N(C)S(=O)(=O)CCCn1c(C(=O)O)c(CCCOc3cccc4cc(F)ccc34)c3ccc(Cl)c-2c31 (single isomer, unassigned; enantiomer 4) [Example 64]
2.9e-06

Try this molecule too: Cc1c2c(nn1C)CN(C)S(=O)(=O)CCCn1c(C(=O)O)c(CCCOc3cccc4cc(F)ccc34)c3ccc(F)c-2c31 (single isomer, unassigned; enantiomer 2) [Example 39]
6.7e-07

Try this molecule too: Cc1c2c(nn1C)C(CCN1CCOCC1)N(C)S(=O)(=O)CCCn1c(C(=O)O)c(CCCOc3cccc4ccccc34)c3cccc-2c31 (single isomer, unassigned; enantiomer 1) [Example 45]
1.7e-05

Try this molecule too: CCNCC.CCc1c2c(nn1C)C(CCN1CCOCC1)N(C)S(=O)(=O)CCCn1c(C(=O)O)c(CCCOc3cccc4cc(F)ccc34)c3ccc(Cl)c-2c31 (single isomer, unassigned; enantiomer 2) [Example 76]
8.2e-09

Try this molecule too: Cc1c2c(nn1C)C(CCN1CCOCC1)N(C)S(=O)(=O)CCCn1c(C(=O)O)c(CCCOc3cccc4cc(F)ccc34)c3ccc(Cl)c-2c31 (single isomer, unassigned; enantiomer 1) [Example 66]
8.5e-06

Try this molecule too: CCc1c2c(nn1C)C(CCC1CCOCC1)N(C)S(=O)(=O)CCCn1c(C(=O)O)c(CCCOc3cccc4cc(F)ccc34)c3ccc(Cl)c-2c31 (racemic) [Example 60]
3.9e-08

Try this molecule too: CCc1c2c(nn1C)CN(C1CC1)S(=O)(=O)CCCn1c(C(=O)O)c(CCCOc3cccc4cc(F)ccc34)c3ccc(Cl)c-2c31 (racemic) [Example 53]
9e-07

Try this molecule too: CCc1c2c(nn1C)C(CCC1CCOCC1)N(C)S(=O)(=O)CCCn1c(C(=O)O)c(CCCOc3cccc4cc(F)ccc34)c3ccc(Cl)c-2c31 (single isomer, unassigned; enantiomer 2) [Example 62]
9.7e-06

Try this molecule too: CCc1c2c(nn1C)CN(C)S(=O)(=O)CCCn1c(C(=O)O)c(CCCOc3cccc4cc(F)ccc34)c3ccc(F)c-2c31 (single isomer, unassigned; enantiomer 1) [Example 8]
1.1e-06

Try this molecule too: Cc1c2c(nn1C)C(CCN1CCOCC1)N(C)S(=O)(=O)CCCn1c(C(=O)O)c(CCCOc3cccc4ccccc34)c3cccc-2c31 (single isomer, unassigned; enantiomer 2) [Example 46]
6.1e-07

Try this molecule too: Cc1c2c(nn1C)CN(C1CC1)S(=O)(=O)CCCn1c(C(=O)O)c(CCCOc3cccc4cc(F)ccc34)c3ccc(Cl)c-2c31 (single isomer, unassigned; enantiomer 1) [Example 42]
3.5e-07

Try this molecule too: Cc1c2c(nn1C)CN(C1CC1)S(=O)(=O)CCCn1c(C(=O)O)c(CCCOc3cccc4cc(F)ccc34)c3ccc(Cl)c-2c31 (single isomer, unassigned; enantiomer 2) [Example 43]
1.3e-05

Try this molecule too: CCc1c2c(nn1C)CN(C)S(=O)(=O)CCCn1c(C(=O)O)c(CCCOc3cccc4cc(F)ccc34)c3ccc(Cl)c-2c31 (single isomer, unassigned; enantiomer 2) [Example 37]
9e-06
